Consider the following molecules; for each one, report its Growth inhibition, Compound.
System: E. coli MG1655
Experiment: High-throughput screening of FDA-approved drug library for antibiotic adjuvants (growth inhibition, OD600)
Format: cell-based, Escherichia coli
Settings: library drug alone, LB medium, 96-well, 8 h static culture at 37°C, relative to PMBN (positive) and DMSO (negative) controls, %, table head prints no unit
Structures can show the parent of a compound that is named as a salt.
Report as a plain number; the unit % is understood.

response.value for CS(=O)(=O)O.C[C@H]1COc2c(C3(N)CC3)c(F)cc3c(=O)c(C(=O)O)cn1c23 [Pazufloxacin Mesylate] (field: Growth inhibition, Compound) = 109

Recorded result, CN[C@@H]1[C@@H](O)[C@@H](O[C@@H]2[C@@H](O)[C@H](O[C@H]3OC(CN)=CC[C@H]3N)[C@@H](N)C[C@H]2N)OC[C@]1(C)O [Sisomicin Sulfate] , Growth inhibition, Compound: 105

Value of Growth inhibition, Compound reported for the molecule CC(C)(O/N=C(\C(=O)N[C@@H]1C(=O)N2C(C(=O)[O-])=C(C[n+]3ccccc3)CS[C@H]12)c1csc(N)n1)C(=O)O [Ceftazidime] is 53

For reference, reported Growth inhibition, Compound for CCN(CC)C(=S)SSC(=S)N(CC)CC [Disulfiram] stands at 78

Entry Cn1nnnc1SCC1=C(C(=O)O)N2C(=O)[C@@H](NC(=O)[C@H](OC=O)c3ccccc3)[C@H]2SC1 [Cefamandole nafate] — recorded Growth inhibition, Compound = 88

// sample CCn1cc(C(=O)O)c(=O)c2cc(F)c(N3CCNC(C)C3)c(F)c21 (stereo not shown) [Lomefloxacin] , its Growth inhibition, Compound was 99

The molecule CCn1cc(C(=O)O)c(=O)c2cnc(N3CCNCC3)nc21 [Pipemidic acid] showed Growth inhibition, Compound equal to 105
